- System: MDA-MB-231 breast
- PROTOCOL DETAILS: NCI-60 one-dose screen, 48 h
- COND: 10 µM unless noted
Compounds without any hit were thinned out: in the full panel of roughly 83,000, 20% have a hit. Activity calls are given as the source filed them. Rule for the calls: active = growth percent below 10; inactive = the rest.
Outcomes you can answer with include only these: TRUE for active, FALSE for inactive

Field: example entries. Status: answers known.
{"COMPOUND": "CCNCCNc1cc(-c2ccc(C#N)cc2)c(C#N)c2nc3ccccc3n12", "TARGET ENTITY": "MDA-MB-231 breast", "CLASS LABEL": "TRUE"}
{"COMPOUND": "Cc1ccc(C)c2c1C(=O)OC2=O", "TARGET ENTITY": "MDA-MB-231 breast", "CLASS LABEL": "FALSE"}
{"COMPOUND": "NC(=S)N/N=C/C(=O)O", "TARGET ENTITY": "MDA-MB-231 breast", "CLASS LABEL": "FALSE"}
{"COMPOUND": "Cn1cc(Nc2nccc(-c3ccc(N4CCCC4)c(C#N)c3)n2)cn1", "TARGET ENTITY": "MDA-MB-231 breast", "CLASS LABEL": "FALSE"}
{"COMPOUND": "COc1ccc(C(=O)/C=C/C23c4ccccc4C(c4ccccc42)C2C(=O)NC(=O)C23)cc1 (stereo not given)", "TARGET ENTITY": "MDA-MB-231 breast", "CLASS LABEL": "FALSE"}

Status in this test for "CNC(=O)c1c(NC(=O)c2ccc(C(C)(C)C)cc2)sc2c1CCC(=O)C2" ?
TRUE

Status in this test for "COc1cc(C(=O)/C=C/c2c(C(F)(F)F)nc3ccccn23)cc(OC)c1OC" ?
FALSE

Status in this test for "COc1c(C)cnc(CSc2nc(-c3ccc(C)cc3)cn2-c2ccc(Cl)cc2)c1C" ?
FALSE

Status in this test for "CC1(C)C(=O)/C(=C\c2cccnc2)C[C@]2(C)[C@H]3CC=C4[C@@H]5C[C@@](C)(C(=O)O)CC[C@]5(C)CC[C@@]4(C)[C@]3(C)CC[C@@H]12" ?
FALSE

Status in this test for "N#Cc1c(N)n2c(nc1=Nc1ccc(Cl)cc1)sc1cc(Cl)ccc12" ?
FALSE

Status in this test for "O=C(O)c1ccccc1C(=O)Nc1ccc(Cl)cc1" ?
FALSE

Status in this test for "NC(=S)c1csc(CCNC(=O)c2ccccc2)n1" ?
FALSE

Status in this test for "CCCCCCCCN(CCCCCCCC)C(=N)c1ccnc2ccccc12" ?
TRUE

Status in this test for CCOC(=O)C1C(=O)C=C(c2cnccn2)CC1c1ccc(OC)c(OC)c1 (stereo not given) ?
FALSE

Status in this test for "COc1ccc(Cn2cnc3cc(C(=O)Nc4cccc5ccccc45)ccc32)c(OC)c1" ?
TRUE

Status in this test for "Cc1ccc(S(=O)(=O)NN/C(N)=N\S(=O)(=O)c2cc(C)c(Cl)cc2SCc2ccccc2)cc1" ?
FALSE

Status in this test for "CCCCCCCC/C=C/CCCCCCCC1=NCC[N+]1(CCO)CCO" ?
FALSE

Status in this test for "C[C@H]1[C@H](C)CC[C@]2(C(=O)N3CCN(C)CC3)CC[C@]3(C)C(=CC[C@@H]4[C@@]5(C)C/C(=C/c6cccnc6)C(=O)C(C)(C)[C@@H]5CC[C@]43C)[C@H]12" ?
TRUE

Status in this test for "Cc1c2c(cn1Cc1ccccc1)CCc1cn[nH]c1-2" ?
FALSE

Status in this test for "O=S(=O)(NCCNc1cc(-c2c(-c3cccc(O)c3)nc3sccn23)ccn1)c1ccc(Br)cc1" ?
FALSE

Status in this test for "COc1cc2c(=O)n(CCCn3ccnc3)c3c4cc5c(cc4ccc3c2cc1OC)OCO5" ?
TRUE

Status in this test for "Cc1ccc(-n2nnc(C3=NCCc4c3[nH]c3ccc(Cl)cc43)c2C)cc1" ?
FALSE

Status in this test for "Cc1ccc(NC(=O)C(Cl)Cl)cc1" ?
FALSE

Status in this test for "Nc1c(-c2nc3ccc(Br)cc3c(=O)[nH]2)nnn1-c1ccccc1" ?
FALSE

Status in this test for CCCCC1COc2cccc3c(SCC(=O)N(C)c4cccc(Cl)c4)cc[n+]1c23 (stereo not given) ?
FALSE

Status in this test for "Cc1nc2ccc(C(=O)NCc3cc(C(=O)O)c(C)o3)cc2nc1C" ?
FALSE

Status in this test for CCC(O)(C(c1ccccc1)c1ccccn1)C(c1ccccc1)c1ccccn1 (stereo not given) ?
FALSE

Status in this test for CN1C[C@@H](c2ccc(Cl)cc2)[C@]2(NC(=S)N(c3ccccc3)C2=O)[C@@]12C(=O)NC1C=CC(Br)=C[C@H]12 (stereo not given in full) ?
FALSE
